The measurements presented in this section are drawn from the NIST ThermoML archive (doi:10.1021/je200682t).

# protocol: relative permittivity at zero frequency (dimensionless)
# particulars: 245.65 K; 101.33 kPa; Liquid; Parallel plate capacitor
measure: relative permittivity at zero frequency

Kindly indicate its recorded relative permittivity at zero frequency. Item: O=C1CCCCCC1 [cycloheptanone]
15.35

Look up and report measured relative permittivity at zero frequency for this entry: O=C1CCCC1 [cyclopentanone]
15.56

Read the entry O=C1CCCCC1 [cyclohexanone] and write its reported relative permittivity at zero frequency.
19.54

Read the entry O=C1CCC1 [cyclobutanone] and write its reported relative permittivity at zero frequency.
17.81

###

# protocol: relative permittivity at zero frequency (dimensionless)
# particulars: 300.65 K; 101.33 kPa; Liquid; Parallel plate capacitor
measure: relative permittivity at zero frequency

Give the reported value of relative permittivity at zero frequency for this record: O=C1CCCCCC1
12.82

Hello, please tell me recorded relative permittivity at zero frequency for this one: O=C1CCC1
14.84

Return reported relative permittivity at zero frequency. Input compound: O=C1CCCCC1
15.62

Indicate its recorded relative permittivity at zero frequency; the compound in question is O=C1CCCC1
13.39

###

# protocol: relative permittivity at zero frequency (dimensionless)
# particulars: 310.65 K; 101.33 kPa; Liquid; Parallel plate capacitor
measure: relative permittivity at zero frequency

Return reported relative permittivity at zero frequency. Input compound: O=C1CCCCC1
15.03

Determine its reported relative permittivity at zero frequency: O=C1CCC1
14.37

# return recorded relative permittivity at zero frequency for entry O=C1CCCCCC1
12.41

# return recorded relative permittivity at zero frequency for input O=C1CCCCCCC1
13.74

Output measured relative permittivity at zero frequency for this item: O=C1CCCC1
13.04

###

# protocol: relative permittivity at zero frequency (dimensionless)
# particulars: 250.65 K; 101.33 kPa; Liquid; Parallel plate capacitor
measure: relative permittivity at zero frequency

Provide one value: measured relative permittivity at zero frequency of O=C1CCCCCC1
15.09

Please list relative permittivity at zero frequency recorded for the compound O=C1CCCCC1
19.13

Provide one value: measured relative permittivity at zero frequency of O=C1CCCC1
15.36

Complete the entry with relative permittivity at zero frequency for O=C1CCC1
17.51

###

# protocol: relative permittivity at zero frequency (dimensionless)
# particulars: 280.65 K; 101.33 kPa; Liquid; Parallel plate capacitor
measure: relative permittivity at zero frequency

For O=C1CCCC1 , write its relative permittivity at zero frequency.
14.15

Recall and state the measured relative permittivity at zero frequency for O=C1CCCCC1 .
16.9

Please supply the value of reported relative permittivity at zero frequency for the item O=C1CCCCCC1
13.69

Identify measured relative permittivity at zero frequency corresponding to O=C1CCC1
15.85

###

# protocol: relative permittivity at zero frequency (dimensionless)
# particulars: 265.65 K; 101.33 kPa; Liquid; Parallel plate capacitor
measure: relative permittivity at zero frequency

Using the record for O=C1CCCC1 , state its measured relative permittivity at zero frequency.
14.75

Please indicate relative permittivity at zero frequency recorded for O=C1CCC1
16.65

Tell me relative permittivity at zero frequency reported for O=C1CCCCC1
17.96

Give the measured relative permittivity at zero frequency for O=C1CCCCCC1
14.36
